Tested on: johnsongrass (Sorghum halepense)
Experiment Description: Test B pre-/postemergence plant response
Format: in vivo
Test Conditions: Postemergence, 125 g ai/ha; visual rating after 13 to 15 days, scale 0 (no effect) to 100 (complete control)
// assign TRUE if Plant response rating, Johnsongrass falls strictly below 80, else FALSE (ties count as FALSE)

Example cases with answers are listed next.
Challenge: Determine whether this compound shows Plant response rating, Johnsongrass lower than 80 (ties excluded): CCCCn1c(CCC)ncc(C(=O)C2=C(O)CCCC2=O)c1=O
Response given: TRUE

Challenge: Request: CCn1c(-c2ccccc2)ncc(C(=O)C2=C(O)CCCC2=O)c1=O
Response given: TRUE

Challenge: Try the compound O=C1CCCC(O)=C1C(=O)c1cnc(-c2ccccc2)n(-c2ccc(F)cc2)c1=O
Response given: TRUE

Challenge: Also, CCCn1c(-c2ccccc2)ncc(C(=O)C2=C(O)CCCC2=O)c1=O please.
Response given: TRUE

Challenge: Param item: O=C1CCCC(O)=C1C(=O)c1cnc(-c2ccccc2)n(-c2ccccc2Br)c1=O
Response given: TRUE

Challenge: For Cc1ccc(F)c(-n2c(-c3ccccc3)ncc(C(=O)C3=C(O)CCCC3=O)c2=O)c1 then?
Response given: FALSE

Challenge: Record: Cc1cccc(-n2c(-c3cccc(Cl)c3)ncc(C(=O)C3=C(O)CCCC3=O)c2=O)c1
Response given: FALSE

Challenge: // repeat for Cc1ccc(-n2c(-c3cccc(Cl)c3)ncc(C(=O)C3=C(O)CCCC3=O)c2=O)cc1 and report
Response given: FALSE

Now consider the entry below.
Challenge: Problem: For the compound CC(C)Cc1ncc(C(=O)C2=C(O)CCCC2=O)c(=O)n1-c1ccccc1 , is Plant response rating, Johnsongrass under 80?
Response given: TRUE

* * *

Test system: corn (Zea mays)
Experiment Description: Test A pre-/postemergence plant response
Type: in vivo
Test Conditions: Postemergence, 500 g ai/ha; 0 to 100 scale, 0 = no effect, 100 = complete control; approx. ten days
Value Kind: Plant response rating, Corn

Field: example entries. Status: answers known.
Challenge: Hello, I am looking for reported Plant response rating, Corn with corn (Zea mays) for O=C1CCCC(O)=C1C(=O)c1cnc(C2CC2)n(-c2ccccc2)c1=O . Could you help?
Response given: 50

Challenge: Do the same for CCCn1c(-c2ccn(C)n2)ncc(C(=O)C2=C(O)CCCC2=O)c1=O please
Response given: 0

Challenge: Ok, now Cc1cccc(C)c1-n1c(-c2ccccc2)ncc(C(=O)C2=C(O)CCCC2=O)c1=O
Response given: 20

Challenge: Would you mind doing O=C1CCCC(O)=C1C(=O)c1cnc(-c2ccccc2)n(C2CCCCCC2)c1=O as well?
Response given: 50

Others:
Challenge: Missing value: Plant response rating, Corn, corn (Zea mays), entry Cc1ccc(F)c(-n2c(-c3ccccc3)ncc(C(=O)C3=C(O)CCCC3=O)c2=O)c1 . Fill in?
Response given: 80

* * *

System: umbrella sedge (Cyperus difformis)
Experiment Description: Test B flooded paddy test
Format: in vivo
Test Conditions: Flood, 31 g ai/ha; scale 0 to 100 (0 no effect, 100 complete control)
Description: Plant species in the flooded paddy test consisted of rice (Oryza sativa), umbrella sedge (Cyperus difformis), ducksalad (Heteranthera limosa) and barnyardgrass (Echinochloa crus-galli) grown to the 2-leaf stage for testing. […] Treated plants and controls were maintained in a greenhouse for 13 to 15 days, after which time all treated plants were visually evaluated and compared to controls. […]
Value Kind: Sedge, Umbrella plant response rating
Simply state the number, no unit and no words.

Solved entries:
Challenge: Field: Sedge, Umbrella plant response rating (umbrella sedge (Cyperus difformis)). Entry: COCCn1c(-c2cccs2)ncc(C(=O)C2=C(O)CCCC2=O)c1=O [Compound 108]
Response given: 0

Challenge: Proceed to Cc1ccc(-n2c(-c3cc(F)cc(F)c3)ncc(C(=O)C3=C(O)CCCC3=O)c2=O)cc1 [Compound 162]
Response given: 95

Challenge: And for O=C1CCCC(O)=C1C(=O)c1cnc(-c2ccccc2)n(C2CCOCC2)c1=O [Compound 129] ?
Response given: 0

***
Challenge: Tell me reported Sedge, Umbrella plant response rating for CCCCCCn1c(-c2ccccc2)ncc(C(=O)C2=C(O)CCCC2=O)c1=O [Compound 94] , tested with umbrella sedge (Cyperus difformis).
Response given: 20

Challenge: Then this molecule: CCCn1c(-c2cc(Cl)cc(Cl)c2)ncc(C(=O)C2=C(O)CCCC2=O)c1=O [Compound 173]
Response given: 0

Challenge: Quick one: O=C1CCCC(O)=C1C(=O)c1cnc(-c2cc(F)cc(F)c2)n(CC2CCCCC2)c1=O [Compound 163]
Response given: 70

* * *

Recorded Plant response rating, Morningglory values for a group of compounds are listed next.
Test system: morningglory (Ipomoea spp.)
Experiment Description: Test A pre-/postemergence plant response
Format: in vivo
Test Conditions: Postemergence, 125 g ai/ha; 0 to 100 scale where 0 is no effect and 100 is complete control
// return just the number, without any unit appended

Challenge: Look up Plant response rating, Morningglory for this compound: COCCOCCn1c(-c2ccccc2)ncc(C(=O)C2=C(O)CCCC2=O)c1=O [Compound 91]
Response given: 100

Challenge: Entry CCOCCn1c(-c2ccccc2)ncc(C(=O)C2=C(O)CCCC2=O)c1=O [Compound 96] please
Response given: 100

Challenge: For CCCn1c(-c2cc(Cl)cc(Cl)c2)ncc(C(=O)C2=C(O)CCCC2=O)c1=O [Compound 173] then?
Response given: 100

Challenge: Also Cc1cc(F)ccc1-n1c(-c2cccc(Cl)c2)ncc(C(=O)C2=C(O)CCCC2=O)c1=O [Compound 167] ?
Response given: 60

Challenge: Also, COc1ccc(-n2c(-c3cccc(C)c3)ncc(C(=O)C3=C(O)CCCC3=O)c2=O)cc1 [Compound 212] please.
Response given: 50

--- query ---
Challenge: Given the compound O=C1CCCC(O)=C1C(=O)c1cnc(C2CC2)n(-c2ccccc2)c1=O [Compound 87] , what is its reported Plant response rating, Morningglory?
Response given: 90

* * *

Tested on: corn (Zea mays)
Experiment Description: Test A pre-/postemergence plant response
Type: in vivo
Test Conditions: Postemergence, 125 g ai/ha; 0 to 100 scale where 0 is no effect and 100 is complete control
Value Kind: Plant response rating, Corn

Challenge: Which Plant response rating, Corn value belongs to CCn1c(-c2cccc(F)c2)ncc(C(=O)C2=C(O)CCCC2=O)c1=O ?
Response given: 0

Challenge: Another molecule to look at: CCc1ccc(-n2c(-c3cccc(Br)c3)ncc(C(=O)C3=C(O)CCCC3=O)c2=O)cc1
Response given: 0

Challenge: Follow-up item: O=C1CCCC(O)=C1C(=O)c1cnc(-c2cc(F)cc(F)c2)n(CC2CCCO2)c1=O (stereo not drawn)
Response given: 10

Challenge: // same read-out, input: Cc1ccccc1-n1c(-c2cccc(Br)c2)ncc(C(=O)C2=C(O)CCCC2=O)c1=O
Response given: 0

Challenge: For Cc1ccc(-n2c(-c3cccc(C)c3)ncc(C(=O)C3=C(O)CCCC3=O)c2=O)cc1 then?
Response given: 0

Challenge: Another: O=C1CCCC(O)=C1C(=O)c1cnc(-c2ccccc2)n(C2CC2)c1=O
Response given: 0

Continuing:
Challenge: Which Plant response rating, Corn is reported for this molecule? Cc1c(F)cccc1-n1c(-c2ccccc2)ncc(C(=O)C2=C(O)C3CCC(C3)C2=O)c1=O (stereo not drawn)
Response given: 20

Challenge: // same read-out, input: CCCCn1c(-c2cccc(C)c2)ncc(C(=O)C2=C(O)C3CCC(C3)C2=O)c1=O (stereo not drawn)
Response given: 10

Challenge: Same read-out for O=C1CCCC(O)=C1C(=O)c1cnc(-c2ccccc2)n(C2CC[S+]([O-])CC2)c1=O (mixture of isomers) ?
Response given: 0

* * *

Test system: umbrella sedge (Cyperus difformis)
Experiment Description: Test B flooded paddy test
Format: in vivo
Test Conditions: 250 g ai/ha; flooded paddy test; visual rating on 0 to 100 scale (0 no effect, 100 complete control) after 13 to 15 days
Value Kind: Plant response rating, Flood, Sedge, Umbrella
Hey, just send me the number, nothing else.

Take a look at these entries with their results.
Challenge: Which Plant response rating, Flood, Sedge, Umbrella reading was recorded for the molecule CCCn1c(-c2ccc(Br)cc2)ncc(C(=O)C2=C(O)CCCC2=O)c1=O ?
Response given: 0

Challenge: Same for Cc1ccc(C)c(-n2c(-c3ccccc3)ncc(C(=O)C3=C(O)CCCC3=O)c2=O)c1
Response given: 80

Challenge: Again, but for COCCCn1c(-c2cccc(F)c2)ncc(C(=O)C2=C(O)CCCC2=O)c1=O
Response given: 85

Next molecule, Plant response rating, Flood, Sedge, Umbrella to be filled in.
Challenge: Plant response rating, Flood, Sedge, Umbrella for COc1ccc(-n2c(-c3cccc(Cl)c3)ncc(C(=O)C3=C(O)CCCC3=O)c2=O)cc1 ?
Response given: 100

* * *

Here the recorded Plant response rating, Canarygrass is given for each entry.
Tested on: canarygrass (Phalaris minor)
Experiment Description: Test B postemergence plant response
Type: in vivo
Test Conditions: Postemergence, 250 g ai/ha; scale 0 to 100 (0 no effect, 100 complete control); 13 to 15 days
Reply: number alone, nothing else.

Reference set, count: 2
Challenge: State the recorded Plant response rating, Canarygrass for this entry: O=C1CCCC(O)=C1C(=O)c1cnc(-c2ccccc2)n(C2CCOCC2)c1=O
Response given: 0

Challenge: Consider next the compound CCCCn1c(C2CC2)ncc(C(=O)C2=C(O)CCCC2=O)c1=O in the same way.
Response given: 25

New cases:
Challenge: For the compound CCCCn1c(-c2ccccc2)ncc(C(=O)C2=C(O)C3CCC(C3)C2=O)c1=O (stereo not drawn) , what Plant response rating, Canarygrass is on record?
Response given: 40

Where these numbers come from: patent US8952024B2
